- Test Target: GalNAc6S(b1-4)GlcNAc
- Assay Method Text: glycan array binding signal (z-score within array); higher = stronger binding
- Reported Conditions: glycan notation: IUPAC condensed, linker removed
About 410 targets per protein were measured; listed, in parts, are those with the strongest signals and a random draw of the rest.
Property Label: glycan array binding signal (z-score)
The response must contain the number and no unit.

INPUT: Looking for the measured glycan array binding signal (z-score) of Apa (Mycobacterium tuberculosis), Rv1860 (protein) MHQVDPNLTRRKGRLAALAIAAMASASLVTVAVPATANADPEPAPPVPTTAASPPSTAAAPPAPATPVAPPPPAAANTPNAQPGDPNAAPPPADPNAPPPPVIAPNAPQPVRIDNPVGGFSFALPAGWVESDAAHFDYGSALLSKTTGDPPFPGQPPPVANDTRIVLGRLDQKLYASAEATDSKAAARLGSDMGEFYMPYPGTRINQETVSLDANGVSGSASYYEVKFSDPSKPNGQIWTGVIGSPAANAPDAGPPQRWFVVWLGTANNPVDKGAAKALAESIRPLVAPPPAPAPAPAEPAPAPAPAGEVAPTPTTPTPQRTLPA , can you help?
OUTPUT: 2.78

INPUT: Also BabA (Helicobacter pylori), O52269_HELPY (protein) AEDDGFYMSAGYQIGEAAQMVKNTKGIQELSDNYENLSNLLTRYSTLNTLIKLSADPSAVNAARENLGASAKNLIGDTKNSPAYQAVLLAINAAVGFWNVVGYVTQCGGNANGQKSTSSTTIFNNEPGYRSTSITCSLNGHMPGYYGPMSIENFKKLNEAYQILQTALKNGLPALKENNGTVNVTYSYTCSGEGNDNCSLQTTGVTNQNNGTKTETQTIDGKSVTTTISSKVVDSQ ?
OUTPUT: -0.764

INPUT: Also PfulAvr4 2 (Pseudocercospora fuligena) (protein) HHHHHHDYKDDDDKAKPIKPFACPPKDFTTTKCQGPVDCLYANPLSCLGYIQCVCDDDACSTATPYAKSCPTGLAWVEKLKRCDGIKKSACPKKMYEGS ?
OUTPUT: -0.276

FYI, the data here is from the supplement of paper PMC8728848.
